Origin of the recorded values: the RNAGym collection of RNA variant scans (doi:10.1126/science.aae0568)

B1: tRNA (parent)
chain: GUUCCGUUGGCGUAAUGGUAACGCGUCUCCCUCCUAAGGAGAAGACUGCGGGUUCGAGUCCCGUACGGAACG

- Variants of: B1
- method notes: yeast fitness relative to wild type (ratio to wild type); higher = fitter; tRNA-Arg(CCU), competitive growth, 37 C, YPD
Fewer inactive variants are shown than the library holds.
readout label: yeast fitness
// return a plain number; no unit text

C4G A43C ... 0.853

Exam item: Give yeast fitness for C31G A57C C62G
Marked response: 0.703

Exam item: Give yeast fitness for C22A G25A U64A
Marked response: 0.629

Exam item: Give yeast fitness for C5G A21G G44A
Marked response: 0.59
